Values were extracted from the kinase profiling compilation of Christmann-Franck et al. (2016).

# target-or-system: CDK5 CDK5R1 p35 (human) (UniProt Q00535+Q15078)
# protocol-notes: radiometric filter-binding kinase assay, Kinase HotSpot
# assay-context: compound 0.5 µM; ATP 10 µM
Reported residual activity values are given for each entry in this list.
Hi! Could you send only the number? It should be in %, unit omitted.

Use the examples below as a reference point.
COc1ccc(OC)c2c(=S)c3ccccc3[nH]c12 = 86.4
Cn1nc2c3c(cccc31)C(=O)c1ccccc1-2 = 105
COc1cc2ncc(-c3ccccc3)nc2cc1OC = 95.8

Requested read-out residual activity, target or system CDK5 CDK5R1 p35 (human) (UniProt Q00535+Q15078), entry `COc1ccc(CNC(=O)Nc2ncc([N+](=O)[O-])s2)cc1`
96.4

Subsequent entry: `Cc1ccc(NC(=O)c2ccc(CN3CCN(C)CC3)cc2)cc1Nc1nccc(-c2cccnc2)n1`
103

Subsequent entry: `O=C(Nc1cccc(Nc2cc(Nc3cccc(C(F)(F)F)c3)ncn2)c1)C1CC1`
99.5

====

# target-or-system: UniProtKB Q16620
# Sequence (Q16620 whole entry, looked up): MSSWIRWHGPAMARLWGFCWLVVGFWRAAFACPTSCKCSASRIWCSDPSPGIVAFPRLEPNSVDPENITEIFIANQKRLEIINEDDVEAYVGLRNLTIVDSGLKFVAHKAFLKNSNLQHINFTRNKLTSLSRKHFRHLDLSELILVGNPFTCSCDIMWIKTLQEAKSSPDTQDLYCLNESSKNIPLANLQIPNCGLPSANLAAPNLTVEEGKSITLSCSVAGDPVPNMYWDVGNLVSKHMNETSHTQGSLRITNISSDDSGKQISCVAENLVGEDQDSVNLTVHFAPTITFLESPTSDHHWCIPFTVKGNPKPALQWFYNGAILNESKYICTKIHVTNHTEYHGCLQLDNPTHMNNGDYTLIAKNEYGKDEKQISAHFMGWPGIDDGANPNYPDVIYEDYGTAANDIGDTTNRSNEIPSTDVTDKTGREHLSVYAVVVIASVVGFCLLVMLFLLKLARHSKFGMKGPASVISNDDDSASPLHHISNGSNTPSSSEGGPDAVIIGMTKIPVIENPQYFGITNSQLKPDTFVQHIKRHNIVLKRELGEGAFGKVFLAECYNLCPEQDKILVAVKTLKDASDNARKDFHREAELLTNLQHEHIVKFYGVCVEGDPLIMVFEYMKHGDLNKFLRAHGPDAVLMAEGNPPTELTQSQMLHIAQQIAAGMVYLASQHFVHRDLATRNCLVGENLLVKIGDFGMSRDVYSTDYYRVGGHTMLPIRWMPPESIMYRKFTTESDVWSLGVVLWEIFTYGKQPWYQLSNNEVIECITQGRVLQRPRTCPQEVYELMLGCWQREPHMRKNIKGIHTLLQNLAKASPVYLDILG
# protocol-notes: radiometric filter-binding kinase assay, Kinase HotSpot
# assay-context: compound 0.5 µM; ATP 10 µM
observation-type: residual activity
Answer as a quantity: numeral, then unit.

Use the examples below as a reference point.
COc1cc2ncnc(N3CCN(C(=O)Nc4ccc(Oc5ccccc5)cc4)CC3)c2cc1OC = 121%
Cn1cnc2cc3c(Nc4cccc(Br)c4)ncnc3cc21 = 98.9%
Nc1nccc(-c2c(-c3ccc(F)cc3)ncn2C2CCNCC2)n1 = 103%

Now for a further compound.
Tell me the measured residual activity of `O=C1NC(=O)/C(=C\c2ccc3nccnc3c2)S1` , please.
90.7%

====

# target-or-system: STK10 (human)
# protocol-notes: radiometric filter-binding kinase assay, Kinase HotSpot
# assay-context: compound 0.5 µM; ATP 10 µM
Reported residual activity values are given for each entry in this list.

O=C1Nc2ccccc2/C1=C1/Nc2ccccc2/C1=N\OCCC(O)CO (stereo not given) = 52.1%
O=C(Nc1cccc(Nc2cc(Nc3cccc(C(F)(F)F)c3)ncn2)c1)C1CC1 = 95.7%

Tell me the measured residual activity of `O=C1NC(=O)/C(=C\c2ccc3nccnc3c2)S1` , please.
90.5%

Subsequent entry: `CN(C)C[C@H]1CCn2c(c(C3=C(c4cn(C)c5ccccc45)C(=O)NC3=O)c3ccccc32)C1`
26.6%

Subsequent entry: `CCN(CC)CCCCN1c2ccccc2Oc2ccc(Cl)cc21`
97.1%

Subsequent entry: `CN([C@@H](Cc1ccc(OS(=O)(=O)c2cccc3cnccc23)cc1)C(=O)N1CCN(c2ccccc2)CC1)S(=O)(=O)c1cccc2cnccc12`
96.3%

Subsequent entry: `O=C(CCCc1ccc(-c2ccccc2F)cc1)Nc1ccc(O)cc1`
95.3%

Subsequent entry: `O=C1Cc2c([nH]c3ccc(Br)cc23)-c2ccccc2N1`
89.8%

Subsequent entry: `O=C1NC(=O)C(c2c[nH]c3ccccc23)=C1c1c[nH]c2ccccc12`
49.6%

Subsequent entry: `Oc1ccc(Nc2nc(-c3ccc(Cl)cc3)cs2)cc1`
96.6%

====

# target-or-system: RAF1 (human) (UniProt P04049)
# Sequence (P04049 whole entry, looked up): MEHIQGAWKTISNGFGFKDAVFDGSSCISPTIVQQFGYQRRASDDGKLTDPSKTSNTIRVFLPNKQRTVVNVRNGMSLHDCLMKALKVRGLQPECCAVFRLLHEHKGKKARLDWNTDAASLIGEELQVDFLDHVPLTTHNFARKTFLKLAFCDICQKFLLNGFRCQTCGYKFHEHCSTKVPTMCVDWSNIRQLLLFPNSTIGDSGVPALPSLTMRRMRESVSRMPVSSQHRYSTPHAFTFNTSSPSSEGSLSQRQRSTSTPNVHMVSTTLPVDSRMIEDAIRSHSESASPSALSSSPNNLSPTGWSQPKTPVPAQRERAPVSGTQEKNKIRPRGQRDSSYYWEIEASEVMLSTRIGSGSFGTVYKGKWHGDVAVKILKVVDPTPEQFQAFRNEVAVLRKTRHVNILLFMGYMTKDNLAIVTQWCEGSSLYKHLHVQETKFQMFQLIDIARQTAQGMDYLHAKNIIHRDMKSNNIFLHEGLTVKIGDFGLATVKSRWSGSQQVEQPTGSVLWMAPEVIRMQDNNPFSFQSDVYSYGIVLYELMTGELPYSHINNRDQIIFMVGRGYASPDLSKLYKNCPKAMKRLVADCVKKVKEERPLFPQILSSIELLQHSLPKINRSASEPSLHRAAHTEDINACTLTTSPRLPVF
# protocol-notes: radiometric filter-binding kinase assay, Kinase HotSpot
# assay-context: compound 0.5 µM; ATP 10 µM
Reported residual activity values are given for each entry in this list.
Hi! Could you send only the number? It should be in %, unit omitted.

Use the examples below as a reference point.
O=C(Nc1cccc(Nc2cc(Nc3cccc(C(F)(F)F)c3)ncn2)c1)C1CC1 = 98.4
CC(=O)O/N=C1\C(=C2\C(=O)Nc3cc(Br)ccc32)Nc2ccccc21 = 100
CN(C)C[C@H]1CCn2c(c(C3=C(c4cn(C)c5ccccc45)C(=O)NC3=O)c3ccccc32)C1 = 96.6
O=C1NC(=O)C(c2cn(CCCO)c3ncccc23)=C1c1cnccn1 = 100

Now for a further compound.
Requested read-out residual activity, target or system RAF1 (human) (UniProt P04049), entry `CC(C)c1nn(-c2c(Cl)cccc2Cl)c2nc(Cc3ccc(OCCO)cc3)nc(O)c12`
95.8

====

# target-or-system: UniProt:Q8TF76
# Sequence (Q8TF76 whole entry, looked up): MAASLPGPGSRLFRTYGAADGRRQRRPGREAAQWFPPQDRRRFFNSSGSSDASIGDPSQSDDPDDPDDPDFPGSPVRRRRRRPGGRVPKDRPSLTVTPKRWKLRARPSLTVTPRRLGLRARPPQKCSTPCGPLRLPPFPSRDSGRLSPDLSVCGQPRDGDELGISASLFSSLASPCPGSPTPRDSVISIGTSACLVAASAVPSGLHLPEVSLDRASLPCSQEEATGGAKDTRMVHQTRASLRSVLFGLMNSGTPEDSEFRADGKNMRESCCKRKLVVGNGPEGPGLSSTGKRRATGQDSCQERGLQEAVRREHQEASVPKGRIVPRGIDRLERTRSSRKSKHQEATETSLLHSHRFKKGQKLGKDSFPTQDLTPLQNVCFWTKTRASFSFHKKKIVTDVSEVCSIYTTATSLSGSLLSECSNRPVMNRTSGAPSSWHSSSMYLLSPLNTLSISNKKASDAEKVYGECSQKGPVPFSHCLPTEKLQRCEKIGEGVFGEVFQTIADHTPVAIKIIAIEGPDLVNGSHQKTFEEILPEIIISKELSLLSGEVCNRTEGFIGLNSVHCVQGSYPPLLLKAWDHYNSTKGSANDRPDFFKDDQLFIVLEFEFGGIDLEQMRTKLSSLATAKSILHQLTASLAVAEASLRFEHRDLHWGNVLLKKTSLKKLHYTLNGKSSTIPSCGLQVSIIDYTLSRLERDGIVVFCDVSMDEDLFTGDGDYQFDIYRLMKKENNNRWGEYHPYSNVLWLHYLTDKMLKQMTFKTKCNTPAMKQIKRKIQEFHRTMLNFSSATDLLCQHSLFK
# protocol-notes: radiometric filter-binding kinase assay, Kinase HotSpot
# assay-context: compound 0.5 µM; ATP 10 µM
observation-type: residual activity
Answer as a quantity: numeral, then unit.

O=C1Cc2c([nH]c3ccc(Br)cc23)-c2ccccc2N1 = 89.1%
Oc1ccc(Nc2nc(-c3ccc(Cl)cc3)cs2)cc1 = 100%
CCn1cnc2c(Nc3cccc(Cl)c3)nc(N[C@@H]3CCCC[C@@H]3N)nc21 = 90.4%

Now for a further compound.
Requested read-out residual activity, target or system UniProt:Q8TF76, entry `COc1ccc(OC)c2c(=S)c3ccccc3[nH]c12`
89.2%

====

# target-or-system: PRKCH (human) (UniProt P24723)
# Sequence (P24723 whole entry, looked up): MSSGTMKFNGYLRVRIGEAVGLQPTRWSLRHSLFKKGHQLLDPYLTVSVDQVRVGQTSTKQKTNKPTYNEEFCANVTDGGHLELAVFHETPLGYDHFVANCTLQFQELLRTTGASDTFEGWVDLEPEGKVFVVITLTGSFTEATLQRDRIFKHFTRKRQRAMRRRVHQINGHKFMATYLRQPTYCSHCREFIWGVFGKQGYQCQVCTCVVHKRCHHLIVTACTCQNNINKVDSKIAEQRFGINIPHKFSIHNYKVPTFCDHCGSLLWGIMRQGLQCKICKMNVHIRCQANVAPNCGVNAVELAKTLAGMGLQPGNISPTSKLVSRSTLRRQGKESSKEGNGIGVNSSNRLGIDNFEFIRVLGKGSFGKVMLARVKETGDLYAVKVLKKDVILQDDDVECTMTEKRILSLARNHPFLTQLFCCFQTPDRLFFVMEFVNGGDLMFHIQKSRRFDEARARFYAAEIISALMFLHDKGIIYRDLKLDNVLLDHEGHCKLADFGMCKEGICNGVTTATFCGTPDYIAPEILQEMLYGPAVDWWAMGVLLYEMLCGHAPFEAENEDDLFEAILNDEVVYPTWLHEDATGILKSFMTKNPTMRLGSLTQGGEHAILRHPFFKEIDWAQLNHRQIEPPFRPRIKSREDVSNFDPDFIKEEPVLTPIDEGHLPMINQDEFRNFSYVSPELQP
# protocol-notes: radiometric filter-binding kinase assay, Kinase HotSpot
# assay-context: compound 0.5 µM; ATP 10 µM
observation-type: residual activity (%)
Hi! Could you send only the number? It should be in %, unit omitted.

Use the examples below as a reference point.
Cn1cnc2cc3c(Nc4cccc(Br)c4)ncnc3cc21 = 81.2
CN([C@@H](Cc1ccc(OS(=O)(=O)c2cccc3cnccc23)cc1)C(=O)N1CCN(c2ccccc2)CC1)S(=O)(=O)c1cccc2cnccc12 = 89.8
O=C1Cc2c([nH]c3ccc(Br)cc23)-c2ccccc2N1 = 95.3
O=C1NC(=O)C(c2c[nH]c3ccccc23)=C1c1c[nH]c2ccccc12 = 42
CC(C)[C@H](CO)Nc1nc(Nc2cc(N)cc(Cl)c2)c2ncn(C(C)C)c2n1 = 99.4
Oc1ccc(Nc2nc(-c3ccc(Cl)cc3)cs2)cc1 = 96.3
NC(=O)c1ccc2[nH]c(-c3ccc(Oc4ccc(Cl)cc4)cc3)nc2c1 = 93.4
CC(C)c1nn(-c2c(Cl)cccc2Cl)c2nc(Cc3ccc(OCCO)cc3)nc(O)c12 = 87.4
Cn1nc2c3c(cccc31)C(=O)c1ccccc1-2 = 94.3

Requested read-out residual activity, target or system PRKCH (human) (UniProt P24723), entry `O=C1c2ccccc2-[n+]2ccc3c([nH]c4ccccc43)c21`
87.1

====

# target-or-system: ITK (human)
# protocol-notes: radiometric filter-binding kinase assay, Kinase HotSpot
# assay-context: compound 0.5 µM; ATP 10 µM
observation-type: residual activity (%)
Hi! Could you send only the number? It should be in %, unit omitted.

Tell me the measured residual activity of `O=C1Cc2c([nH]c3ccc(Br)cc23)-c2ccccc2N1` , please.
102

Subsequent entry: `CC(C)c1nn(-c2c(Cl)cccc2Cl)c2nc(Cc3ccc(OCCO)cc3)nc(O)c12`
98.6

Subsequent entry: `Nc1nccc(-c2c(-c3ccc(F)cc3)ncn2C2CCNCC2)n1`
90.5

Subsequent entry: `O=C1NC(=O)/C(=C\c2ccc3nccnc3c2)S1`
91.2

Subsequent entry: `O=C1NC(=O)C(c2c[nH]c3ccccc23)=C1c1c[nH]c2ccccc12`
102

Subsequent entry: `Nc1nnc2[nH]c3ccccc3nc1-2`
101

====

Reported residual activity values are given for each entry in this list.
# target-or-system: CSNK1A1 (human) (UniProt P48729)
# Sequence (P48729 whole entry, looked up): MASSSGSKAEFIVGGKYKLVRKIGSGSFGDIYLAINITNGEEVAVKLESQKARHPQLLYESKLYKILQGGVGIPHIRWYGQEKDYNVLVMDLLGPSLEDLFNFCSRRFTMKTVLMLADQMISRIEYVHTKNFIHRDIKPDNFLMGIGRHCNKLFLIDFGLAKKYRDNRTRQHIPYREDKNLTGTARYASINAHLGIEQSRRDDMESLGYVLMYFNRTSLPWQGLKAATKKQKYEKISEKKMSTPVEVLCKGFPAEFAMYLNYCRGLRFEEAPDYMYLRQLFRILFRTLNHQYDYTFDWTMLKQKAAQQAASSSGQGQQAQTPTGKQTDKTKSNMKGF
# protocol-notes: radiometric filter-binding kinase assay, Kinase HotSpot
# assay-context: compound 0.5 µM; ATP 10 µM
Hi! Could you send only the number? It should be in %, unit omitted.

Use the examples below as a reference point.
Cn1cnc2cc3c(Nc4cccc(Br)c4)ncnc3cc21 = 102
COc1ccc(CNC(=O)Nc2ncc([N+](=O)[O-])s2)cc1 = 92.4
CC(C)[C@H](CO)Nc1nc(Nc2cc(N)cc(Cl)c2)c2ncn(C(C)C)c2n1 = 75.5
O=C1Cc2c([nH]c3ccc(Br)cc23)-c2ccccc2N1 = 95.1

Tell me the measured residual activity of `CC(=O)O/N=C1\C(=C2\C(=O)Nc3cc(Br)ccc32)Nc2ccccc21` , please.
68.5

Subsequent entry: `COc1cc(OC)c(/C=C2\C(=O)Nc3ccccc32)c(OC)c1`
59.6

====

# target-or-system: KDR (human)
# protocol-notes: radiometric filter-binding kinase assay, Kinase HotSpot
# assay-context: compound 0.5 µM; ATP 10 µM
Reported residual activity values are given for each entry in this list.
Hi! Could you send only the number? It should be in %, unit omitted.

Tell me the measured residual activity of `O=C1NC(=O)C(c2c[nH]c3ccccc23)=C1c1c[nH]c2ccccc12` , please.
60.8

Subsequent entry: `Nc1nccc(-c2c(-c3ccc(F)cc3)ncn2C2CCNCC2)n1`
102

Subsequent entry: `Cn1nc2c3c(cccc31)C(=O)c1ccccc1-2`
101

Subsequent entry: `CC(C)[C@H](CO)Nc1nc(Nc2cc(N)cc(Cl)c2)c2ncn(C(C)C)c2n1`
101

Subsequent entry: `COc1ccc(OC)c2c(=S)c3ccccc3[nH]c12`
108

Subsequent entry: `O=C1Cc2c([nH]c3ccc(Br)cc23)-c2ccccc2N1`
98.1
